Data credit: PubChem BioAssay (NCI)

test system: HCT-116 colon; assay: NCI tumour cell line growth inhibition, 48 h
# key: entry, value: GI50

Solved entries (count: 3):
| compound | experimental-endpoint | recorded-result |
| --- | --- | --- |
| COc1ccc(CNc2cnc3cc(N)cc(N)c3n2)cc1 | GI50 | 19400 nM |
| O=C(Cn1c(C(=O)c2ccccc2)nc2ccccc21)c1ccc(F)cc1 | GI50 | 3280 nM |
| CC(C)(C)NC/C(=C\c1ccccc1)C(=O)c1ccccc1 | GI50 | 1180 nM |

Query :: Answer with GI50 of CO[C@@H]1[C@H]2[C@@H](C)c3ccoc3C[C@@H]2[C@@]2(C)CC[C@H](OC(=O)c3ccccc3)[C@](C)(C(=O)O)[C@]2(O)[C@@H]1OC(=O)c1ccccc1 measured for HCT-116 colon.
Result :: 8890 nM

Query :: Answer with GI50 of CCCN1C(=O)/C(=C/c2ccc(O)cc2)SC1=Nc1ccc(OC)cc1 measured for HCT-116 colon.
Result :: 14200 nM

Query :: Answer with GI50 of C/C=C(/C)C(=O)OC1C=C(CO)C(=O)C(OC(=O)C(C)(O)C(C)Cl)C1C(C)C (centres undefined) measured for HCT-116 colon.
Result :: 1070 nM

Query :: Answer with GI50 of O=C(O)Cn1c2c(c3c(O)cccc31)C(=O)c1ccccc1-2 measured for HCT-116 colon.
Result :: 93600 nM

====

tested on: MCF7 breast; assay: NCI tumour cell line growth inhibition, 48 h; in the data active = GI50 below about 0.43 µM; inactive = the rest
Use one of these outcomes when replying: active, inactive

Example cases with answers are listed next.
| compound | class-label |
| --- | --- |
| COc1ccc(CNc2cnc3cc(N)cc(N)c3n2)cc1 | inactive |
| O=C(Nc1nc(-c2ccc(Cl)cc2)nc2c1sc(=S)n2-c1ccccc1)C(F)(F)F | inactive |
| CC[C@@H](C)Nc1cc(C(=O)NC2CC3CCC(C2)N3c2ccc(C(=O)C3CC3)cn2)c(C)cc1C(N)=O (stereo partly specified) | active |
| CCCCCCN(C)Cc1ccc(OCCOc2ccc(CN(C)CCCCCC)cc2)cc1 | inactive |
| CCOC(=O)c1cc(-c2ccc(OC)c(OC)c2)[nH]c1N/N=C/c1c(Cl)cccc1Cl | active |

Query :: Please share the test call associated with CSc1ccc(C2=NN(C(C)=O)C(c3ccc(F)cc3)C2)cc1 (stereo unspecified) .
Result :: inactive

Query :: Please share the test call associated with CC(C)CCC(=O)[C@@H](C)[C@H]1[C@@H](OC2OCC(O)C(O)C2NS(C)(=O)=O)C[C@H]2[C@@H]3CC=C4C[C@@H](O)CC[C@]4(C)[C@H]3CC[C@]12C (stereo partly specified) .
Result :: inactive

Query :: Please share the test call associated with COc1ccc(/C=C\c2cc(OC)c(OC)c(OC)c2)c(O)c1O .
Result :: active

Query :: Please share the test call associated with O=c1c(-c2ccc(O)cc2)coc2cc(OC3OC(CO)C(O)C(O)C3O)cc(O)c12 (stereo unspecified) .
Result :: inactive

Query :: Please share the test call associated with Cc1nnc(-c2ccc(C)c(-c3ccc(C(=O)NCc4ccc(Cl)cc4)cc3)c2)o1 .
Result :: inactive

Query :: Please share the test call associated with C/C=C(/C)C(=O)OC1C=C(CO)C(=O)C(OC(=O)C(C)(O)C(C)Cl)C1C(C)C (stereo unspecified) .
Result :: inactive

====

system: UACC-62 melanoma; test: NCI tumour cell line growth inhibition, 48 h
experimental-endpoint: TGI

Solved entries (count: 3):
| compound | recorded-result |
| --- | --- |
| O=C1C(=O)N(c2cccc(C(F)(F)F)c2)C(=O)C(=O)C1c1nc2ccccc2s1 | > 100 µM |
| CN(C)c1ccc(C2ON=C(c3ccccc3)N2C23CC4CC(CC(C4)C2)C3)cc1 (centres undefined) | > 10 µM |
| O=C(CN(c1ccc(S(=O)(=O)O)cc1)c1ccc(S(=O)(=O)O)cc1)Nn1cnc2ccc(S(=O)(=O)N(c3ccc(S(=O)(=O)O)cc3)c3ccc(S(=O)(=O)O)cc3)cc2c1=O | > 100 µM |

Query :: For the compound C=C1CC(CN2CCC(=O)NC2=O)(c2ccccc2)OC1=O (centres undefined) , report TGI.
Result :: 21.3 µM

Query :: For the compound O=C(O)CCSC(=O)Nc1ccccc1Cl , report TGI.
Result :: > 100 µM

====

system: UACC-257 melanoma; assay: NCI tumour cell line growth inhibition, 48 h
experimental-endpoint: TGI

Solved entries (count: 10):
| molecule | TGI |
| --- | --- |
| C=CCc1cccc(/C=N\N=C(/N)NO)c1O | 30.6 µM |
| Cc1c2c(ccc3ccccc32)c[n+]2ccccc12 | 26.5 µM |
| CCc1nc2cc(/C=C/C(=O)NO)ccc2c(=O)n1CCc1ccc(F)cc1 | 5.92 µM |
| O=C(O)Cn1c2c(c3c(O)cccc31)C(=O)c1ccccc1-2 | > 100 µM |
| CCCCCCCCCc1c(O)c(O)c(CCCCCCCCC)c(CCCCCCCCC)c1CCCCCCCCC | > 100 µM |
| CCOc1c(C#N)c2c(N)ncnc2n1C1OC(CO)C(O)C1O (stereo not drawn) | > 77.3 µM |
| C=C1CC(CN2CCC(=O)NC2=O)(c2ccccc2)OC1=O (stereo not drawn) | 30.8 µM |
| Nc1c(N2CCCCC2)c(=O)nc2[nH]/c(=C\c3ccccc3)c(=O)n12 | > 100 µM |
| O=C(CN(c1ccc(S(=O)(=O)O)cc1)c1ccc(S(=O)(=O)O)cc1)Nn1cnc2ccc(S(=O)(=O)N(c3ccc(S(=O)(=O)O)cc3)c3ccc(S(=O)(=O)O)cc3)cc2c1=O | > 100 µM |
| COc1cc(C23OCC(Cc4cc5c(cc42)OCO5)C3CO)cc(OC)c1OC (stereo not drawn) | > 100 µM |

Query :: For the molecule CN(C)CCCNC(=O)c1cc(NC(=O)c2cc(NC(=O)[C@@H]3C[C@H]3C(=O)Nc3cc(C(=O)Nc4cc(C(=O)NCCCN(C)C)n(C)c4)n(C)c3)cn2C)cn1C , report TGI.
Result :: > 100 µM

====

# key: entry, value: TGI
test system: KM20L2 colon; assay: NCI tumour cell line growth inhibition, 48 h

| compound | experimental-endpoint | recorded-result |
| --- | --- | --- |
| CC(=O)O/N=C(Cl)/C(Cl)=N/OC(C)=O | TGI | > 100 µM |
| O=c1nc2sc3ccc4ccccc4c3n2[nH]c1=O | TGI | 99 µM |
| CCC(C)C1NC(=O)CNC(=O)C2Cc3c([nH]c4cc(O)ccc34)S(=O)CC(NC(=O)CNC1=O)C(=O)NC(CC(=O)O)C(=O)N1CC(O)CC1C(=O)NC(C(C)C(O)CO)C(=O)N2 (stereo unspecified) | TGI | > 100 µM |
| NC(=Nc1nc(-c2ccccn2)cc2ccccc12)c1ccccn1 | TGI | > 100 µM |
| Cc1c2c(ccc3ccccc32)c[n+]2ccccc12 | TGI | 77 µM |

Could you now consider this next compound?
Query :: For the compound CCCCCCCCCOC(=S)NCCCCC , report TGI.
Result :: 59.3 µM

====

system: NCI-H23 lung; assay: NCI tumour cell line growth inhibition, 48 h
experimental-endpoint: TGI (µM)
Answer in µM, number only, no unit symbol.

| molecule | measurement-target | TGI, µM |
| --- | --- | --- |
| CC[C@]12C=CCN3CC[C@@]4(c5ccc(OC)cc5N(C)[C@H]4[C@@](O)(C(=O)OC)[C@@H]1OC(=O)CCC(=O)N[C@H](Cc1c[nH]c4ccccc14)C(=O)OC)[C@@H]32 | NCI-H23 lung | 54.3 |
| CCCCCCCCCOC(=S)NCCCCC | NCI-H23 lung | 68.3 |
| CCN(CC)CC(C)(C)C(=O)/C=C/c1ccc(/C=C/C(=O)C(C)(C)CN(CC)CC)cc1 | NCI-H23 lung | 4.73 |
| CO[C@@H]1[C@H]2[C@@H](C)c3ccoc3C[C@@H]2[C@@]2(C)CC[C@H](OC(=O)c3ccccc3)[C@](C)(C(=O)O)[C@]2(O)[C@@H]1OC(=O)c1ccccc1 | NCI-H23 lung | 28.5 |
| CN(C)Cc1cc(N=Nc2ccc(Cl)cc2)ccc1O | NCI-H23 lung | 45.2 |

Could you now consider this next molecule?
Query :: For the molecule C[C@]12CC/C(=N\OCCN3CCCCC3)C=C1CCC1C2CC[C@@]2(C)C1CC[C@]2(C)O (stereo not given in full) , report TGI.
Result :: 33.5

====

system: OVCAR-4 ovarian; assay: NCI tumour cell line growth inhibition, 48 h
experimental-endpoint: TGI

Solved entries (count: 8):
| compound | experimental-endpoint | recorded-result |
| --- | --- | --- |
| CN(O)C(=S)c1ccccc1 | TGI | 19.6 µM |
| CSc1nc(NC2OC(COC(C)=O)C(OC(C)=O)C(OC(C)=O)C2OC(C)=O)c(N=C(C)C(C)=O)c(=O)n1C (stereo not given) | TGI | > 100 µM |
| COC(=O)C(=O)C(C(=O)C(=O)Nc1ccc(C)cc1)c1nc2ccc(C(=O)c3ccccc3)cc2[nH]c1=O (stereo not given) | TGI | > 100 µM |
| O=C(NNC(=S)NCc1ccccc1)C12CC3CC(CC(C3)C1)C2 | TGI | > 100 µM |
| CC(=O)N/C(=C\c1ccc(/C=C(\NC(C)=O)C2=NC3C(=O)c4ccccc4C(=O)C3N2)cc1)C1=NC2C(=O)c3ccccc3C(=O)C2N1 (stereo not given) | TGI | > 100 µM |
| COc1cc(CC(C(=O)O)C(=O)O)c(OC)cc1CC(C(=O)O)C(=O)O | TGI | > 100 µM |
| CCCN1C(=O)/C(=C/c2ccc(O)cc2)SC1=Nc1ccc(OC)cc1 | TGI | 35.2 µM |
| CCOC(=O)c1csc(NC(=O)COc2cccc(/C=C3\CSc4ccccc4C3=O)c2)n1 | TGI | 17.9 µM |

Query :: For the compound COc1ccc(CNC(=O)[C@H](Cc2ccc(O)cn2)NC(C)=O)cc1 , report TGI.
Result :: > 100 µM

Query :: For the compound N#Cc1c(N)c(C#N)c2c(c1-c1ccc(Cl)cc1)COc1ccccc1-2 , report TGI.
Result :: 30 µM
